This collection of values is drawn from paper PMC9706574.

# Assay System: BRD4 (Homo sapiens, UniProt O60885)
# Construct: endogenous in cells; host or cells: MDA-MB-231
# Protocol Summary: BRD4 degradation by Western blot analysis in MDA-MB-231 cells
# Assay type: cell-based
# Stated Conditions: 1 μM, 16 h, MDA-MB-231 cells
Endpoint: Densitometry (% of control), BRD4-immunoreactive band relative to DMSO vehicle

Worked examples, 5 compounds total:
INSERT INTO measurements (compound, assay_result) VALUES
  ('Cc1sc2c(c1C)C(c1ccc(Cl)cc1)=N[C@@H](CC(=O)N1CCN(CC(=O)NCCOCCOc3cccc4c3C(=O)N(C3CCC(=O)NC3=O)C4=O)CC1)c1nnc(C)n1-2 (stereo partly shown)', '39,2 % of control'),
  ('Cc1sc2c(c1C)C(c1ccc(Cl)cc1)=N[C@@H](CC(=O)NCC(=O)NCCOCCOCCOc1cccc3c1C(=O)N(C1CCC(=O)NC1=O)C3=O)c1nnc(C)n1-2 (stereo partly shown)', '34,7 % of control'),
  ('Cc1sc2c(c1C)C(c1ccc(Cl)cc1)=N[C@@H](CC(=O)N1CCN(CC(=O)NCCCCOc3cccc4c3C(=O)N(C3CCC(=O)NC3=O)C4=O)CC1)c1nnc(C)n1-2 (stereo partly shown)', '17,4 % of control'),
  ('Cc1sc2c(c1C)C(c1ccc(Cl)cc1)=N[C@@H](CC(=O)N(C)CC(=O)NCCOCCOc1cccc3c1C(=O)N(C1CCC(=O)NC1=O)C3=O)c1nnc(C)n1-2 (stereo partly shown)', '101,3 % of control'),
  ('Cc1sc2c(c1C)C(c1ccc(Cl)cc1)=N[C@@H](CC(=O)N(C)CC(=O)NCCCCOc1cccc3c1C(=O)N(C1CCC(=O)NC1=O)C3=O)c1nnc(C)n1-2 (stereo partly shown)', '74,1 % of control');

Task: May I ask what Densitometry (% of control), BRD4-immunoreactive band relative to DMSO vehicle has been recorded for Cc1sc2c(c1C)C(c1ccc(Cl)cc1)=N[C@@H](CC(=O)NCC(=O)NCCOCCOc1cccc3c1C(=O)N(C1CCC(=O)NC1=O)C3=O)c1nnc(C)n1-2 (stereo partly shown) ?
Result: 36,8 % of control

Task: And the next one, Cc1sc2c(c1C)C(c1ccc(Cl)cc1)=N[C@@H](CC(=O)N1CCN(CC(=O)NCCOCCOCCOc3cccc4c3C(=O)N(C3CCC(=O)NC3=O)C4=O)CC1)c1nnc(C)n1-2 (stereo partly shown) ?
Result: 41,4 % of control
